// data source = ChEMBL document CHEMBL5376015

Molecular target: Non-receptor tyrosine-protein kinase TYK2 (Homo sapiens, UniProt P29597)
Sequence (P29597 whole entry): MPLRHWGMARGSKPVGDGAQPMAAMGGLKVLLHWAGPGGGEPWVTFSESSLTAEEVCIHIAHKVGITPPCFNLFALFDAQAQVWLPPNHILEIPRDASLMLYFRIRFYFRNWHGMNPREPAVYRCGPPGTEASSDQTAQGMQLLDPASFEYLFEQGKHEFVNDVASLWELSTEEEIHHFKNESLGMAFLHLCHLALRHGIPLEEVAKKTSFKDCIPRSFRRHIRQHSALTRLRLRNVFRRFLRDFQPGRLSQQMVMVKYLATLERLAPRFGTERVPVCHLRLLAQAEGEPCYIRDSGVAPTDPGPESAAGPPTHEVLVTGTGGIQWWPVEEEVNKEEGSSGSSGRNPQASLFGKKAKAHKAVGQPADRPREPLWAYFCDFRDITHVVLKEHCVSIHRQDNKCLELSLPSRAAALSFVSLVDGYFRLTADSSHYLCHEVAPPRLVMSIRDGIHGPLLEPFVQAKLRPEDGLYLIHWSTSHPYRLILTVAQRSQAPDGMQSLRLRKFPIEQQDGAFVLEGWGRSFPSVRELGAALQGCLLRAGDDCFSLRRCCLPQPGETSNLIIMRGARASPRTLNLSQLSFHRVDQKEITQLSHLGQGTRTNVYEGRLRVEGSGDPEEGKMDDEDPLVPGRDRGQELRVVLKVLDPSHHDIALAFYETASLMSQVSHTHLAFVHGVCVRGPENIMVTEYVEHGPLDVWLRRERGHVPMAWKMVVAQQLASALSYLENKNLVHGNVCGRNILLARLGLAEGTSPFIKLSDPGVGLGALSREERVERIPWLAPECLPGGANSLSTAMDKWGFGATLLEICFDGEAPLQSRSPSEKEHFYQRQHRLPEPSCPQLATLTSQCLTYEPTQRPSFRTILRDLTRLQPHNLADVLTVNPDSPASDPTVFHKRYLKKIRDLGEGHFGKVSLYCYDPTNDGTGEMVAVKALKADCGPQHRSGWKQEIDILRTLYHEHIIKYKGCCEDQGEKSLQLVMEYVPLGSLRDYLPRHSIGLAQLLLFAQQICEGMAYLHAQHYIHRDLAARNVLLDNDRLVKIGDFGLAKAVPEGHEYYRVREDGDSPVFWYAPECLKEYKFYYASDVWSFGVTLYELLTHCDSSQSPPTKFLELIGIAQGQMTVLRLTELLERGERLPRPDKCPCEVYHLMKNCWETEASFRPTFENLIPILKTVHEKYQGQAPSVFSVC
Assay: Inhibition of human recombinant TYK2
pIC50: −log10 of the molar value.
property-measured: pIC50

Observe how each entry below is paired with its result.
COc1ccc2cc1COC/C=C/COCc1cccc(c1)-c1ccnc(n1)N2    6.68
CN(C)CCN(C)c1ccc2cc1COC/C=C/COCc1cccc(c1)-c1ccnc(n1)N2    7.15
OCCN1CCN(c2ccc3cc2COC/C=C/COCc2cccc(c2)-c2ccnc(n2)N3)CC1    6.80

A: COc1ccc2cc1COC/C=C/COCc1cc(ccc1OCCN1CCCC1)Nc1nccc-2n1
B: Cc1cnc2nc1-c1cccc(c1)COC/C=C/COCc1cc(ccc1OCCN1CCCC1)N2
(Q) Please let me know which one, A or B , has a lower measured pIC50 value. Mark your answer with the label of the selected entry.
(A) A
